- Tested on: FB
- experimental.details: Euclidean distance of Cell Painting phenotypic profile (signed KS, 77 features) to DMSO centroid (dimensionless distance); 5 or 10 uM (library dependent); higher = stronger phenotypic change vs DMSO (phenoactivity)
- run.conditions: 48 h
Structures can show the parent of a compound that is named as a salt.
assay.readout: Euclidean distance

Some solved cases for reference:
- C=CC(=O)N1CC/C(=C\c2ccc(F)c([N+](=O)[O-])c2)C(=O)/C(=C/c2ccc(F)c([N+](=O)[O-])c2)C1: 5.74
- CCOC(=O)[C@H](CCc1ccccc1)N[C@@H](C)C(=O)N1Cc2cc(OC)c(OC)cc2C[C@H]1C(=O)O [Moexipril HCl]: 0.74
- COc1ccccc1N1CCN(CCCNc2cc(=O)n(C)c(=O)n2C)CC1 [Urapidil HCl]: 0.778
- C/C=C\c1ccc(O)c(OC)c1 [Isoeugenol]: 0.672
- CCS(=O)(=O)N1CCN(c2ccc(Nc3ncc(C(N)=O)c(NC4CC4)n3)cc2)CC1: 2.62

Indicate its recorded Euclidean distance; the molecule in question is COC(=O)CCc1ccc(OCC(O)CNC(C)C)cc1 (stereo not drawn) [Esmolol HCl]
0.525

Return reported Euclidean distance. Input molecule: CC1CCC(C(C)C)C(O)C1 (single isomer, unassigned; (-)) [(-)-Menthol]
0.797

State, in one line, measured Euclidean distance of "Cc1c(C(=O)N2CCOc3ccc(-c4ccc(N)nc4)cc3C2)ccc(S(C)(=O)=O)c1F"
3.46

====

- Tested on: OVCAR4
- experimental.details: Euclidean distance of Cell Painting phenotypic profile (signed KS, 77 features) to DMSO centroid (dimensionless distance); 5 or 10 uM (library dependent); higher = stronger phenotypic change vs DMSO (phenoactivity)
- run.conditions: 48 h
Recorded Euclidean distance by entry

Please review the following examples before continuing.
- O=C(O)CCCc1ccccc1 [Sodium Phenylbutyrate]: 1.01
- CCN1CCN(Cc2ccc(-c3cc4c(N[C@H](C)c5ccccc5)ncnc4[nH]3)cc2)CC1: 1.02

Next, consider the following compound.
Report Euclidean distance, nothing else, for this compound: "CC1=NN(c2ccccc2)C(=O)C1"
1.02

====

- System: FB
- experimental.details: Euclidean distance of Cell Painting phenotypic profile (signed KS, 77 features) to DMSO centroid (dimensionless distance); 5 or 10 uM (library dependent); higher = stronger phenotypic change vs DMSO (phenoactivity)
- run.conditions: 48 h
assay.readout: Euclidean distance
Answer with the value's number alone.

Solved entries (count: 2):
• Nc1ccc(O)c(C(=O)O)c1 = 1.06
• Cc1cc(Cl)ccc1OCCCC(=O)NO = 1.3

Tell me Euclidean distance reported for "Nc1cc(C(F)(F)F)c(-c2nc(N3CCOCC3)nc(N3CCOCC3)n2)cn1"
4.83

====

- Tested on: 786-O
- experimental.details: Euclidean distance of Cell Painting phenotypic profile (signed KS, 77 features) to DMSO centroid (dimensionless distance); 5 or 10 uM (library dependent); higher = stronger phenotypic change vs DMSO (phenoactivity)
- run.conditions: 48 h
Counter-ions that a name gives are not always drawn.
Could you label it Condition met if measured Euclidean distance is 1 or higher, and Condition not met otherwise?

For orientation, consider the following solved cases.
- COc1ccc(C(=O)NCc2ccc(OCCN(C)C)cc2)cc1OC [Itopride hydrochloride]: Condition met
- O=C1NC(=O)/C(=C/c2ccc(-c3ccc(F)cc3O)o2)S1: Condition met
- CNC(=O)c1cc(Oc2ccc(NC(=O)Nc3ccc(Cl)c(C(F)(F)F)c3)c(F)c2)ccn1 [Regorafenib Monohydrate]: Condition met

Check if Euclidean distance >= 1 (inclusive). Item: "O=C1CN(/N=C/c2ccc([N+](=O)[O-])o2)C(=O)N1"
Condition met

Can "CC(C)Nc1cc(-c2c[nH]c(C(=O)N[C@H](CO)c3cccc(Cl)c3)c2)c(Cl)cn1" be said to have Euclidean distance at or above 1?
Condition met

Has "N[C@@H](Cc1cc(I)c(Oc2ccc(O)c(I)c2)c(I)c1)C(=O)O" a recorded Euclidean distance greater than or equal to 1?
Condition met

Is reported Euclidean distance greater than or equal to 1 here: "CCC(=O)NS(=O)(=O)c1ccc(-c2c(-c3ccccc3)noc2C)cc1"
Condition not met

Is it the case that "CCOc1nc2cccc(C(=O)OCc3oc(=O)oc3C)c2n1Cc1ccc(-c2ccccc2-c2noc(=O)[nH]2)cc1" has Euclidean distance reaching or exceeding 1?
Condition not met

====

- Test system: DU145
- experimental.details: Euclidean distance of Cell Painting phenotypic profile (signed KS, 77 features) to DMSO centroid (dimensionless distance); 5 or 10 uM (library dependent); higher = stronger phenotypic change vs DMSO (phenoactivity)
- run.conditions: 48 h
Structures can show the parent of a compound that is named as a salt.
Recorded Euclidean distance, one value per entry.
Response field accepts a number only; no unit should be typed.

# annotated cases, reported Euclidean distance shown
- Cc1cc(Cl)ccc1OCCCC(=O)NO [Droxinostat]: 0.991
- O=C(O)C(Cc1ccccc1[N+](=O)[O-])=NNc1nc(-c2ccc(Cl)c(Cl)c2)cs1 (mixture of isomers): 0.992
- CN1CCN(CC(=O)N2c3ccccc3C(=O)Nc3cccnc32)CC1 [Pirenzepine dihydrochloride]: 0.77
- Cc1c(O)c(=O)ccn1C [Deferiprone]: 1.07

Now for a further compound.
Hello, please tell me recorded Euclidean distance for this one: "CCS(=O)(=O)c1cccc(-c2cc(C(=O)NC3CCN(C)CC3)c(C)c3[nH]c4ncc(C)cc4c23)c1"
2.89

====

- Tested on: HEPG2
- experimental.details: Euclidean distance of Cell Painting phenotypic profile (signed KS, 77 features) to DMSO centroid (dimensionless distance); 5 or 10 uM (library dependent); higher = stronger phenotypic change vs DMSO (phenoactivity)
- run.conditions: 48 h
Structures can show the parent of a compound that is named as a salt.
assay.readout: Euclidean distance
Give only the figure.

Examples with answers:
- NC(=O)c1cc[n+](CC2=C(C(=O)O)N3C(=O)[C@@H](NC(=O)[C@@H](c4ccccc4)S(=O)(=O)[O-])[C@H]3SC2)cc1 [Cefsulodin sodium]: 0.633
- C[C@@H](O)[C@H]1C(=O)N2C(C(=O)O)=C(S[C@@H]3CN[C@H](C(=O)Nc4cccc(C(=O)O)c4)C3)[C@H](C)[C@H]12 [Ertapenem sodium]: 0.854
- O=C(Nc1ccc(S(=O)(=O)Nc2ccccc2Cl)c(Cl)c1)c1ccccn1: 0.744
- CCN1CCN(C(=O)N[C@@H](C(=O)N[C@@H]2C(=O)N3[C@@H]2SC(C)(C)[C@@H]3C(=O)O)c2ccccc2)C(=O)C1=O [Piperacillin Sodium]: 0.514
- CC[C@@H]1/C=C(\C)C[C@H](C)C[C@H](OC)[C@H]2O[C@@](O)(C(=O)C(=O)N3CCCC[C@H]3C(=O)O[C@H](/C(C)=C/[C@@H]3CC[C@H](Cl)[C@H](OC)C3)[C@H](C)[C@@H](O)CC1=O)[C@H](C)C[C@@H]2OC [Pimecrolimus]: 0.886

Give measured Euclidean distance for COc1ccc(CCNCC(O)COc2cccc(C)c2)cc1OC (stereo not given) [Bevantolol hydrochloride] (HEPG2).
0.573

Find Euclidean distance for C=C1[C@H](CO)[C@@H](O)C[C@@H]1n1cnc2c(=O)[nH]c(N)nc21 [Entecavir] on HEPG2 and write it down.
1.35

Please tell me the measured Euclidean distance for Cc1nc(-c2ccc(OCC(C)C)c(C#N)c2)sc1C(=O)O [Febuxostat] ; system: HEPG2.
0.375

Fill in Euclidean distance for NC(=NCCCCCCN=C(N)N=C(N)Nc1ccc(Cl)cc1)N=C(N)Nc1ccc(Cl)cc1 [Chlorhexidine?2HCl] tested with HEPG2.
2.59

Find Euclidean distance for CC1(C)CCC(c2ccc(Cl)cc2)=C(CN2CCN(c3ccc(C(=O)NS(=O)(=O)c4ccc(N[C@H](CCN5CCOCC5)CSc5ccccc5)c(S(=O)(=O)C(F)(F)F)c4)cc3)CC2)C1 [ABT-263 (Navitoclax)] on HEPG2 and write it down.
1.25

====

- Test system: HEPG2
- experimental.details: Euclidean distance of Cell Painting phenotypic profile (signed KS, 77 features) to DMSO centroid (dimensionless distance); 5 or 10 uM (library dependent); higher = stronger phenotypic change vs DMSO (phenoactivity)
- run.conditions: 48 h
Structures can show the parent of a compound that is named as a salt.
assay.readout: Euclidean distance
Lab note: jot the number down without any unit.

Worked examples, 3 molecules total:
* Cc1cccc(Nc2ccncc2S(=O)(=O)NC(=O)NC(C)C)c1 [Torsemide] | 0.917
* Cc1nccn1CC1CCc2c(c3ccccc3n2C)C1=O (stereo unspecified) [Ondansetron HCl] | 0.865
* N#C[C@@H]1C[C@@H]2C[C@@H]2N1C(=O)[C@@H](N)C12CC3CC(CC(O)(C3)C1)C2 [Saxagliptin hydrate] | 0.598

GET Euclidean distance | system: HEPG2 | item: "O=C(O)c1ccccc1Nc1cccc(C(F)(F)F)c1"
0.711

Supply Euclidean distance measured with HEPG2 for CN(C)CCc1c[nH]c2ccc(Cn3cncn3)cc12 [Rizatriptan Benzoate] .
1.06

Write down measured Euclidean distance (HEPG2) for this molecule. "Cc1nc(C#Cc2ccnc(Cl)c2)c(C)n1-c1ccc(OC(F)(F)F)cc1"
0.904

State the measured Euclidean distance (HEPG2) of "CC(C)C[C@H](NC(=O)CNC(=O)c1cc(Cl)ccc1Cl)B1OC(=O)C(CC(=O)O)(CC(=O)O)O1"
4.23

State recorded Euclidean distance with HEPG2, entry "Cc1cccc(-c2[nH]c(C(C)(C)C)nc2-c2ccc3c(c2)OCO3)n1" , no comment.
1.99

Give HEPG2 Euclidean distance for the following molecule: CC(=O)N1CCN(c2ccc(OCC3COC(Cn4ccnc4)(c4ccc(Cl)cc4Cl)O3)cc2)CC1 (stereo unspecified)
0.391

Please tell me the measured Euclidean distance for "C[C@]1(O)C[C@@H](c2nc(-c3ccc4ccc(-c5ccccc5)nc4c3)c3c(N)nccn32)C1" ; system: HEPG2.
1.12

Specify the recorded Euclidean distance for CC1CC(OC(=O)C(O)c2ccccc2)CC(C)(C)C1 (stereo unspecified) [Cyclandelate] , system: HEPG2.
0.782

Answer briefly: Euclidean distance recorded on HEPG2 for "Cc1c(Nc2ncccc2C(=O)O)cccc1C(F)(F)F"
1.42
